Cited source: patent US12649746B2

Test: Stability study of levorotatory enantiomer of compounds in solvent (MCT)
Assay type: physicochemical
Conditions: MCT solution, 60° C., Day 5
Listed molecules paired with reported Ketorolac (%)
QUANTITY_KIND: Ketorolac (%)

INSERT INTO results (molecule, quantity_kind, measured_result) VALUES
  ('CCC(OC(=O)OC(C)C)OC(=O)[C@H]1CCn2c(C(=O)c3ccccc3)ccc21 (stereo partly drawn) [N16(S)]', 'Ketorolac (%)', 0.05),
  ('CCOC(=O)OC(CC)OC(=O)[C@H]1CCn2c(C(=O)c3ccccc3)ccc21 (stereo partly drawn) [N15(S)]', 'Ketorolac (%)', 0.06),
  ('CC(C)OC(=O)OC(C)OC(=O)[C@H]1CCn2c(C(=O)c3ccccc3)ccc21 (stereo partly drawn) [N2(S)]', 'Ketorolac (%)', 0.3),
  ('CCOC(=O)OC(C)OC(=O)[C@H]1CCn2c(C(=O)c3ccccc3)ccc21 (stereo partly drawn) [N12(S)]', 'Ketorolac (%)', 0.09);
